- TESTED_TARGET: Poly-ADP-ribose polymerase (PARP enzyme) (Rattus norvegicus, UniProt P27008)
- Construct: Poly-ADP-ribose polymerase was isolated from rat liver; from tissue; host or cells: rat liver
- Sequence (P27008 whole entry): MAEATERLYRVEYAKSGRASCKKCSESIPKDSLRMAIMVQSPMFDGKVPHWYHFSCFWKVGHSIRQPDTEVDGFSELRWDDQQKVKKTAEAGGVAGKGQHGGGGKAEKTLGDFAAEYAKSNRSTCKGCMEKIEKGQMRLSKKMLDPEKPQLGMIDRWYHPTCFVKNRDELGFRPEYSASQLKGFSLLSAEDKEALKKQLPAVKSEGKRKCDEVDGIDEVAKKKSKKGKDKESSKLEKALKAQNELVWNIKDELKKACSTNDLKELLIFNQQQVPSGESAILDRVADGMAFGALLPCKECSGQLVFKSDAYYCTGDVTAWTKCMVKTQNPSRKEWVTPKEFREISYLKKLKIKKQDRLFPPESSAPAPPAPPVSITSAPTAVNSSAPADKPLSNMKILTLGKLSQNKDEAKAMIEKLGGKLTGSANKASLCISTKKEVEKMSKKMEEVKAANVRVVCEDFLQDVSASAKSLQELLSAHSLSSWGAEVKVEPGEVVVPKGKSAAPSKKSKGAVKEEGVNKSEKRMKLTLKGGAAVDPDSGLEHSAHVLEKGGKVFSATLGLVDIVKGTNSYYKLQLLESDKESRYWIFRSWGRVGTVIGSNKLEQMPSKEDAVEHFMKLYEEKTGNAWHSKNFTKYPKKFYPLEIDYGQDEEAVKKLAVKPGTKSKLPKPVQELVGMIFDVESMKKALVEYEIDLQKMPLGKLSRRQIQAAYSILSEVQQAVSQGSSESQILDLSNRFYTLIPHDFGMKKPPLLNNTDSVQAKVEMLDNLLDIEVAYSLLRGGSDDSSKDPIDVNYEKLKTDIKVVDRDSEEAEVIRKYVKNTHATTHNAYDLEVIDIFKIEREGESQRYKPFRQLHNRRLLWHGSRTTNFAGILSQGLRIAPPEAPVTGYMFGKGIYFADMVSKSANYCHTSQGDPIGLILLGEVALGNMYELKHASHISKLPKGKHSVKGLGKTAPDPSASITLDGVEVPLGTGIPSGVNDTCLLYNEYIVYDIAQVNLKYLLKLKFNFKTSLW
- PROTOCOL_DESCRIPTION: Inhibitory effect of benzimidazole derivatives on PARP enzyme in vitro ([3H]NAD+ incorporation)
- Format: biochemical
This listing pairs molecules with measured pIC50.
By convention, pIC50 is the negative base-10 log of a molar concentration.

Example entries and their recorded answers appear below.
[
  {
    "MOLECULE": "CC1(C)C=C(c2ccc(-c3nc4c(C(N)=O)cccc4[nH]3)cc2)C(C)(C)N1[O] [Compound 11]",
    "OBSERVATION_TYPE": "pIC50",
    "MEAS_VALUE": 7.11
  },
  {
    "MOLECULE": "CN1C(C)(C)C=C(c2nc3c(C(N)=O)cccc3[nH]2)C1(C)C [Compound 13]",
    "OBSERVATION_TYPE": "pIC50",
    "MEAS_VALUE": 7.38
  },
  {
    "MOLECULE": "COc1cc(-c2nc3c(C(N)=O)cccc3[nH]2)ccc1OCC1=CC(C)(C)NC1(C)C [Compound 23]",
    "OBSERVATION_TYPE": "pIC50",
    "MEAS_VALUE": 6.36
  }
]

-- ask # pIC50 lookup, item CC1(C)C=C(c2nc3c(C(N)=O)cccc3[nH]2)CC(C)(C)N1 [Compound 19]
-- reply 7.85

-- ask Note, next up: COc1cc(-c2nc3c(C(N)=O)cccc3[nH]2)ccc1OCC1=CC(C)(C)N([O])C1(C)C [Compound 22]
-- reply 6.33

-- ask Repeat for the following molecule: CC1(C)C(c2nc3c(C(N)=O)cccc3[nH]2)=C(c2cccc3c2oc2ccccc23)C(C)(C)N1[O] [Compound 16]
-- reply 5.74

-- ask Let us now turn to CC1(C)NC(C)(C)C(c2nc3c(C(N)=O)cccc3[nH]2)=C1c1cccc(C(F)(F)F)c1 [Compound 10]
-- reply 6.88

-- ask Then what about the molecule CC1(C)C=C(COc2ccc(-c3nc4c(C(N)=O)cccc4[nH]3)cc2)C(C)(C)N1[O] [Compound 20] ?
-- reply 6.25

-- ask Now this one: CC1(C)C(Br)=C(c2nc3c(C(N)=O)cccc3[nH]2)C(C)(C)N1[O] [Compound 5]
-- reply 6.70

---

- TESTED_TARGET: Poly-ADP-ribose polymerase (PARP enzyme) (Rattus norvegicus, UniProt P27008)
- Construct: Poly-ADP-ribose polymerase was isolated from rat liver; from tissue; host or cells: rat liver
- PROTOCOL_DESCRIPTION: Inhibitory effect of benzimidazole derivatives on PARP enzyme in vitro ([3H]NAD+ incorporation)
- Type: biochemical
- MEASUREMENT_CONTEXT: PARP isolated from rat liver, 1 mM [3H]NAD+, 15 min incubation; read-out: PARP IC50
pIC50: −log10 of the molar value.
Kindly return condition met if reported pIC50 is no lower than 7; return condition not met if it is lower.

-- ask Evaluate CC1(C)NC(C)(C)C(c2cccc3c2oc2ccccc23)=C1c1nc2c(C(N)=O)cccc2[nH]1 [Compound 17] : pIC50 at minimum 7?
-- reply condition not met

-- ask Do the same for CC1(C)C=C(c2nc3c(C(N)=O)cccc3[nH]2)C(C)(C)N1 [Compound 2] please
-- reply condition not met

-- ask For CC1(C)NC(C)(C)C(c2nc3c(C(N)=O)cccc3[nH]2)=C1c1ccccc1 [Compound 8] then?
-- reply condition not met

-- ask Note, next up: COC(=O)C1C(c2nc3c(C(N)=O)cccc3[nH]2)C(C)(C)NC1(C)C (stereo not shown) [Compound 4]
-- reply condition not met

-- ask Entry to check: CC(=O)N1C(C)(C)C=C(c2nc3c(C(N)=O)cccc3[nH]2)C1(C)C [Compound 14]
-- reply condition met

-- ask Record: CC1(C)C=C(c2nc3c(C(N)=O)cccc3[nH]2)CC(C)(C)N1O [Compound 18]
-- reply condition met

-- ask Repeat with CC1(C)C=C(COc2ccc(-c3nc4c(C(N)=O)cccc4[nH]3)cc2)C(C)(C)N1 [Compound 21]
-- reply condition not met
